tested on: NCI-H460; test: Cytotoxicity against human NCI-H460 cells assessed as reduction in cell viability incubated for 24 hrs by MTT assay; assay type: functional, cell-based; settings: NCI-H460, 24 h
Result Type: IC50 (µM)
Write the value in µM as a bare number.

Which IC50 value is on record for O=C(Oc1ccc(-c2ccc(OC(=O)c3cc(O)c(O)c(O)c3)cc2)cc1)c1cc(O)c(O)c(O)c1 ? 10

---

test system: ZR-75-1; assay: Cytotoxicity against human ZR-75-1 cells assessed as reduction in cell viability incubated for 24 hrs by MTT assay; assay type: functional, cell-based; details: ZR-75-1, 24 h
Result Type: IC50 (nM)
Write the value in nM as a bare number.

Which IC50 value is on record for O=C(Oc1ccc(-c2ccc(OC(=O)c3cc(O)c(O)c(O)c3)cc2)cc1)c1cc(O)c(O)c(O)c1 ? 2000
